Source: the OligoGym collection

Reported normalised inhibition (eCFP-eYFP dual reporter) is given for each of the following substances.
# target-system: Mmp7 (rat); further: test concentration or dose not given here
# protocol-description: reporter assay of Huesken 2005
# experimental-parameters: siRNA
Oligonucleotides are given in HELM: sugar(base)linkage, 5' to 3'; d 2'-deoxyribose, r ribose, m 2'-O-methylribose, p phosphate. ss, as = sense and antisense strand
experimental-endpoint: normalised inhibition (eCFP-eYFP dual reporter) (%)

• RNA1{r(A)p.r(C)p.r(U)p.r(C)p.r(U)p.r(C)p.r(U)p.r(G)p.r(G)p.r(G)p.r(U)p.r(C)p.r(U)p.r(G)p.r(G)p.r(G)p.r(U)p.r(C)p.r(A)p.d(T)p.d(T)}|RNA2{r(U)p.r(G)p.r(A)p.r(C)p.r(C)p.r(C)p.r(A)p.r(G)p.r(A)p.r(C)p.r(C)p.r(C)p.r(A)p.r(G)p.r(A)p.r(G)p.r(A)p.r(G)p.r(U)p.d(G)p.d(G)}$$$RNA1{StrandType:ss}|RNA2{StrandType:as}$ = 61.8
• RNA1{r(C)p.r(U)p.r(A)p.r(U)p.r(C)p.r(A)p.r(A)p.r(G)p.r(G)p.r(A)p.r(G)p.r(A)p.r(U)p.r(C)p.r(A)p.r(U)p.r(U)p.r(C)p.r(A)p.d(T)p.d(T)}|RNA2{r(U)p.r(G)p.r(A)p.r(A)p.r(U)p.r(G)p.r(A)p.r(U)p.r(C)p.r(U)p.r(C)p.r(C)p.r(U)p.r(U)p.r(G)p.r(A)p.r(U)p.r(A)p.r(G)p.d(G)p.d(T)}$$$RNA1{StrandType:ss}|RNA2{StrandType:as}$ = 115
• RNA1{r(A)p.r(G)p.r(U)p.r(U)p.r(C)p.r(U)p.r(U)p.r(C)p.r(G)p.r(G)p.r(U)p.r(U)p.r(U)p.r(G)p.r(C)p.r(C)p.r(G)p.r(G)p.r(A)p.d(T)p.d(T)}|RNA2{r(U)p.r(C)p.r(C)p.r(G)p.r(G)p.r(C)p.r(A)p.r(A)p.r(A)p.r(C)p.r(C)p.r(G)p.r(A)p.r(A)p.r(G)p.r(A)p.r(A)p.r(C)p.r(U)p.d(T)p.d(C)}$$$RNA1{StrandType:ss}|RNA2{StrandType:as}$ = 53.8
